- TESTED_SYSTEM: SARS-COV-2 RBD extracellular domain expressed with a C-terminal myc-myc-hexahistidine tag (SARS-CoV-2)
- TEST_SUMMARY: SPR (Biacore), mAb captured by anti-human Fc, RBD-mmH in solution, 25 C
RECORDED_METRIC: kon (M⁻¹ s⁻¹)
# number only, unit M⁻¹ s⁻¹ dropped from output

So what does the record say about kon for mAb15163 (antibody, V domains shown) VH: EVQLVETGGGLIQPGESLRLSCAASGFIVSTNYMNWVRQAPGKGLEWVSVIYRGGSTYYADSVKGRFTISRDNSKNTLFLQMNSLRAEDTAVYYCARGHEDFDYDTPASGAFDIWGQGTMVTVSS VL: QSALTQPPSASGSPGQSVTISCTGTSSDVGGHNYVSWYQQHPGKAPKVMIYEVSKRPSGVPDRFSGSKSGNTASLTVSGLQAEDEADYYCSSYAGSNKFVFGTGTKVTVLG ?
218000

# query: kon of entry mAb15165 (antibody, V domains shown) VH: EVQLVESGGGLVQPGGSLRLSCAASGFTVSSNYMSWVRQAPGKGLEWVSAIYSGDSTYYADSVKGRFTISKDNSKNTLYLQMNSLRGEDTAVYYCARLGGALQAYDGAFDYWGQGTLATVSS VL: QSALTQPASVSGSPGQSITISCTGTSSDFGSYNLVSWYQQHPGKAPKLMIYEGNKRPSGVSIRFSGSKSGNTASLTISGLQAEDEADYYCSSYAGSSTWVFGGGTKLTVLG
539000

For the binder shown here, mAb14282 (antibody, V domains shown) VH: QVQLVQSGAEVKKPGASVKVSCKASGYIFTDHYMHWVRQAPGQGLEWMGWINPNSGATNYAQNFQGRVTMTRDTSIITVYMELSRLRSDDTAVYYCARDSSPYMIRYTMDVWGQGTTITVSS VL: QSALTQPASVSGSPGQSITISCTGTSSDVGSYNLVSWYQQHPGKAPKLMIYELTKRPSGVSNRFSGSKSGNTASLTISGLQAEDEADYYCSSYRGSVTDVVFGGGTKLTVLG , give the reported kon.
1.93e+06
